# test summary: Acute toxicological study in mice (up and down method)
# run parameters: mouse, in vivo; intravenous, male ICR mice aged 5 weeks
Entries and their LD50
Please reply with the bare figure in mg/kg and do not write the unit itself.

Example entries begin here.
item_smiles=COc1cc(N)c(Cl)cc1C(=O)NCc1ccc(OCCN2CCCC2)cc1 recorded_metric=LD50 result_units=mg/kg result_number=44.7
item_smiles=CN(C)CCOc1ccc(CNC(=O)c2ccc(S(N)(=O)=O)cc2)cc1 recorded_metric=LD50 result_units=mg/kg result_number=85.1
item_smiles=COc1ccc(S(N)(=O)=O)cc1C(=O)NCc1ccc(OCCN(C)C)cc1 recorded_metric=LD50 result_units=mg/kg result_number=39.2
item_smiles=COc1ccc(C(=O)NCc2ccc(OCCN3CCCCC3)cc2)cc1OC recorded_metric=LD50 result_units=mg/kg result_number=70.8
item_smiles=CCOc1ccc(C(=O)NCc2ccc(OCCN(C)C)cc2)cc1OC recorded_metric=LD50 result_units=mg/kg result_number=105
item_smiles=Cc1cccc(C(=O)NCc2ccc(OCCN(C)C)cc2)c1 recorded_metric=LD50 result_units=mg/kg result_number=68.5
item_smiles=CN(C)CCOc1ccc(CNC(=O)c2ccc(C#N)cc2)cc1 recorded_metric=LD50 result_units=mg/kg result_number=77.6
item_smiles=COc1cc(N)c(Cl)cc1C(=O)NCc1ccc(OCCN2CCCCC2)cc1 recorded_metric=LD50 result_units=mg/kg result_number=61.7

**Query** # return recorded LD50 for entry CCOc1ccc(C(=O)NCc2ccc(OCCN(C)C)cc2)cc1
**Result** 87.1

**Query** # return recorded LD50 for entry COc1cc(N)c(Cl)cc1C(=O)NCc1ccc(OCCN(C)C)cc1
**Result** 94

**Query** # return recorded LD50 for entry O=C(NCc1ccc(OCCN2CCCC2)cc1)c1ccc2c(c1)OCO2
**Result** 62.6

**Query** # return recorded LD50 for entry CN(C)CCOc1ccc(CNC(=O)c2cccc([N+](=O)[O-])c2)cc1
**Result** 85.9

**Query** # return recorded LD50 for entry CCOc1ccc(C(=O)NCc2ccc(OCCN(C)C)cc2)cc1OCC
**Result** 112

**Query** # return recorded LD50 for entry COc1ccc(C(=O)NCc2ccc(OCCN(C)C)cc2)cc1OC.Cl
**Result** 191

**Query** # return recorded LD50 for entry COc1cccc(C(=O)NCc2ccc(OCCN(C)C)cc2)c1
**Result** 74.1

**Query** # return recorded LD50 for entry Cc1ccc(C(=O)NCc2ccc(OCCN(C)C)cc2)cc1
**Result** 83.2
